measuredTarget: proMMP13(1-268) (SEQ ID NO:7) (Homo sapiens, UniProt P45452)
testDescription: ThermoFluor binding assay with proMMP13(1-268)
conditionDetails: pH 7.0
resultType: Kd (nM)

Sample answers from the record:
[
  {
    "compound": "Cc1nc(C(=O)N2CCC(N(C)C)CC2)sc1-c1csc(Nc2cc(C(N)=O)ccc2OC(C)C)n1",
    "dataValue": 690
  },
  {
    "compound": "Cc1nc(N)sc1-c1csc(Nc2cc(S(C)(=O)=O)ccc2OC(C)C)n1",
    "dataValue": 70
  },
  {
    "compound": "Cc1nc(CN2CCCC2)sc1-c1csc(Nc2cc(C(N)=O)ccc2OC(C)C)n1",
    "dataValue": 4900
  },
  {
    "compound": "Cc1nc(C(=O)NC2CCN(C(C)C)CC2)sc1-c1csc(Nc2cc(C(N)=O)ccc2OC(C)C)n1",
    "dataValue": 360
  },
  {
    "compound": "COc1ccc(-c2cn[nH]c2)cc1Nc1nc(-c2sc(C)nc2C)cs1",
    "dataValue": 830
  },
  {
    "compound": "COc1ccc(-c2ccnn2C)cc1Nc1nc(-c2sc(C)nc2C)cs1",
    "dataValue": 8100
  },
  {
    "compound": "Cc1nc(C(=O)N2CCN(C)CC2)sc1-c1csc(Nc2cc(C(N)=O)ccc2OC(C)C)n1",
    "dataValue": 510
  },
  {
    "compound": "CCOc1ccc(C(=O)O)cc1Nc1nc(-c2sc(NC(C)=O)nc2C)cs1",
    "dataValue": 63000
  }
]

(a) COc1ccc(S(C)(=O)=O)cc1Nc1nc(-c2sc(N)nc2C)cs1
(b) Cc1nc(C(=O)N(C)C)sc1-c1csc(Nc2cc(C(N)=O)ccc2OC(C)C)n1
(c) CC(=O)Nc1nc(C)c(-c2csc(Nc3cccc4c3OCCO4)n2)s1
# rank by Kd, ascending (min first) Enter labels, ranked according to the request.
a, b, c
(a: 1500 nM, b: 2200 nM, c: 62000 nM)

(a) COc1ccc(C#N)cc1Nc1nc(-c2sc(N)nc2C)cs1
(b) Cc1nc(Nc2cccnc2)sc1-c1csc(Nc2cc(C(N)=O)ccc2OC(C)C)n1
Compare reported Kd values for a and b . Which is lower? Pick one and reply with its label.
a
(a: 1500 nM, b: 4100 nM)

(A) Cc1nc(C)c(-c2csc(Nc3cc(C(=O)O)ccc3OC(C)C)n2)s1
(B) Cc1nc(C)c(-c2nc(Nc3cc(C(N)=O)ccc3OC(C)C)sc2Br)s1
When their Kd values are compared, which is larger, A or B ? # respond with the chosen item's label
B
(B: 3200 nM, A: 370 nM)

---

measuredTarget: proMMP13(1-268) (SEQ ID NO:7) (Homo sapiens)
testDescription: ThermoFluor binding assay with proMMP13(1-268)
conditionDetails: pH 7.0
pKd: −log10 of the molar value.
resultType: pKd

[
  {
    "compound": "COc1ccc([N+](=O)[O-])cc1Nc1nc(-c2sc(NC(C)=O)nc2C)cs1 [Example 68]",
    "measuredTarget": "proMMP13(1-268) (SEQ ID NO:7) (Homo sapiens)",
    "pKd": 5.08
  },
  {
    "compound": "Cc1nc(C(=O)O)sc1-c1csc(Nc2cc(C(N)=O)ccc2OC(C)C)n1 [Example 100]",
    "measuredTarget": "proMMP13(1-268) (SEQ ID NO:7) (Homo sapiens)",
    "pKd": 5.85
  }
]

(a) CCOC(=O)c1ccc(OCC)c(Nc2nc(-c3sc(C)nc3C)cs2)c1 [Example 82]
(b) C=Cc1ccc(OC)c(Nc2nc(-c3sc(C)nc3C)cs2)c1 [Example 140]
Param pair: a , b . Output: the one whose pKd is numerically greater. Answer format: the label of the selected item.
a

(a) CCN1CCN(C(=O)c2nc(C)c(-c3csc(Nc4cc(C(N)=O)ccc4OC(C)C)n3)s2)CC1 [Example 102]
(b) CCOc1ccc(S(N)(=O)=O)cc1Nc1nc(-c2sc(C)nc2C)cs1 [Example 70]
I'd appreciate it if you could identify which of a and b has the greater pKd. Mark your answer with the label of the selected entry.
a
(a: 6.18, b: 5.96)

(A) Cc1nc(N(C)C)sc1-c1csc(Nc2cc(C(N)=O)ccc2OC(C)C)n1 [Example 88]
(B) Cc1nc(S(C)(=O)=O)sc1-c1csc(Nc2cc(C(N)=O)ccc2OC(C)C)n1 [Example 132]
Identify the entry with the smaller pKd: A or B . Your answer should be the label attached to the chosen record.
B
